# assay.target: human Cat S (Homo sapiens (Human))
pIC50: −log10 of the molar value.
Outcome: Fulfilled for pIC50 of at least 9; Not fulfilled for anything lower.

{"compound": "N#CC1(NC(=O)[C@@H]2C[C@@H](S(=O)(=O)c3ccc(-c4ccccc4CO)cc3)CN2C(=O)C2(C(F)(F)F)CC2)CC1", "category": "Not fulfilled"}
{"compound": "N#CC1(NC(=O)[C@@H]2C[C@@H](S(=O)(=O)c3ccc(-c4ccccc4C=O)cc3)CN2C(=O)C2(C(F)(F)F)CC2)CC1", "category": "Not fulfilled"}
{"compound": "N#CC1(NC(=O)[C@@H]2C[C@@H](S(=O)(=O)c3ccc(-c4cnn(C(F)F)c4)cc3C(F)(F)F)CN2C(=O)C2(C(F)(F)F)CC2)CC1", "category": "Fulfilled"}
{"compound": "N#CC1(NC(=O)[C@@H]2C[C@@H](S(=O)(=O)c3ccc(-n4cnc(Cl)n4)cc3)CN2C(=O)C2(C(F)(F)F)CC2)CC1", "category": "Not fulfilled"}
{"compound": "Cc1cc(-n2cnc(Cl)n2)ccc1S(=O)(=O)[C@@H]1C[C@@H](C(=O)NC2(C#N)CC2)N(C(=O)C2(C(F)(F)F)CC2)C1", "category": "Not fulfilled"}

====

# assay.target: human Cat S (Homo sapiens (Human), UniProt P25774)
# Sequence (P25774 115-331): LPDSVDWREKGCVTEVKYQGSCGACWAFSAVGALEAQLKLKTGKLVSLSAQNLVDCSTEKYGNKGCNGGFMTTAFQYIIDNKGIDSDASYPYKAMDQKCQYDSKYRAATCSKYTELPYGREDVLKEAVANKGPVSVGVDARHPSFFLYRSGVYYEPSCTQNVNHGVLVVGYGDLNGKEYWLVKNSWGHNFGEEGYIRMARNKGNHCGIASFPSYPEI

{"compound": "CCOc1ccccc1-c1ccc(S(=O)(=O)[C@@H]2C[C@@H](C(=O)NC3(C#N)CC3)N(C(=O)C3(C(F)(F)F)CC3)C2)c(C)c1", "IC50 (nM)": 1.21}
{"compound": "Cc1cc(-c2cc(C(F)(F)F)nn2C)ccc1S(=O)(=O)[C@@H]1C[C@@H](C(=O)NC2(C#N)CC2)N(C(=O)C2(C(F)(F)F)CC2)C1", "IC50 (nM)": 0.955}
{"compound": "Cn1nc(C(F)(F)F)cc1-c1ccc(S(=O)(=O)[C@@H]2C[C@@H](C(=O)NC3(C#N)CC3)N(C(=O)C3(C(F)(F)F)CC3)C2)cc1", "IC50 (nM)": 2.33}
{"compound": "Cc1cc(-c2cnc(N)nc2)ccc1S(=O)(=O)[C@@H]1C[C@@H](C(=O)NC2(C#N)CC2)N(C(=O)C2(C(F)(F)F)CC2)C1", "IC50 (nM)": 0.51}
{"compound": "Cc1cc(-c2ccccc2C=O)ccc1S(=O)(=O)[C@@H]1C[C@@H](C(=O)NC2(C#N)CC2)N(C(=O)C2(C(F)(F)F)CC2)C1", "IC50 (nM)": 0.811}
{"compound": "Cc1nc(C)n(-c2ccc(S(=O)(=O)[C@@H]3C[C@@H](C(=O)NC4(C#N)CC4)N(C(=O)C4(C(F)(F)F)CC4)C3)c(Cl)c2)n1", "IC50 (nM)": 0.61}
{"compound": "Cc1cc(-c2ccccc2C#N)ccc1S(=O)(=O)[C@@H]1C[C@@H](C(=O)NC2(C#N)CC2)N(C(=O)C2(C(F)(F)F)CC2)C1", "IC50 (nM)": 0.86}
{"compound": "N#CC1(NC(=O)[C@@H]2C[C@@H](S(=O)(=O)c3ccc(-c4cnc(N)nc4)cc3)CN2C(=O)C2(C(F)(F)F)CC2)CC1", "IC50 (nM)": 0.483}
{"compound": "Cc1ncc(-c2ccc(S(=O)(=O)[C@@H]3C[C@@H](C(=O)NC4(C#N)CC4)N(C(=O)C4(C(F)(F)F)CC4)C3)cc2)s1", "IC50 (nM)": 0.728}
{"compound": "Cc1cc(-c2ccccc2OC(F)(F)F)ccc1S(=O)(=O)[C@@H]1C[C@@H](C(=O)NC2(C#N)CC2)N(C(=O)C2(C(F)(F)F)CC2)C1", "IC50 (nM)": 1.14}
{"compound": "Cc1nc(C)n(-c2ccc(S(=O)(=O)[C@@H]3C[C@@H](C(=O)NC4(C#N)CC4)N(C(=O)C4(C(F)(F)F)CC4)C3)cc2)n1", "IC50 (nM)": 1.57}
{"compound": "Cc1ncnn1-c1ccc(S(=O)(=O)[C@@H]2C[C@@H](C(=O)NC3(C#N)CC3)N(C(=O)C3(C(F)(F)F)CC3)C2)c(Cl)c1", "IC50 (nM)": 0.486}

====

In what follows, each item is paired with its pIC50 for human Cat S (Homo sapiens (Human)).
pIC50: −log10 of the molar value.

{"compound": "CCOc1ccccc1-c1ccc(S(=O)(=O)[C@@H]2C[C@@H](C(=O)NC3(C#N)CC3)N(C(=O)C3(C(F)(F)F)CC3)C2)c(C(F)(F)F)c1 [Example 5]", "pIC50": 9.08}
{"compound": "N#CC1(NC(=O)[C@@H]2C[C@@H](S(=O)(=O)c3ccc(-n4ccnn4)cc3Cl)CN2C(=O)C2(C(F)(F)F)CC2)CC1 [Example 13]", "pIC50": 9.25}
{"compound": "N#CC1(NC(=O)[C@@H]2C[C@@H](S(=O)(=O)c3ccc(-c4ccccc4OC(F)(F)F)cc3C(F)(F)F)CN2C(=O)C2(C(F)(F)F)CC2)CC1 [Example 4]", "pIC50": 9.01}
{"compound": "N#CC1(NC(=O)[C@@H]2C[C@@H](S(=O)(=O)c3ccc(-c4ccccc4OC4CC4)cc3C(F)(F)F)CN2C(=O)C2(C(F)(F)F)CC2)CC1 [Example 6]", "pIC50": 8.97}
{"compound": "Cc1nnn(-c2ccc(S(=O)(=O)[C@@H]3C[C@@H](C(=O)NC4(C#N)CC4)N(C(=O)C4(C(F)(F)F)CC4)C3)c(Cl)c2)n1 [Example 8]", "pIC50": 9.27}
{"compound": "Cc1ncc(-c2ccc(S(=O)(=O)[C@@H]3C[C@@H](C(=O)NC4(C#N)CC4)N(C(=O)C4(C(F)(F)F)CC4)C3)c(C(F)(F)F)c2)s1 [Example 63]", "pIC50": 9.23}
{"compound": "Cc1cc(-c2ccc(S(=O)(=O)[C@@H]3C[C@@H](C(=O)NC4(C#N)CC4)N(C(=O)C4(C(F)(F)F)CC4)C3)c(C(F)(F)F)c2)cc[n+]1[O-] [Example 2]", "pIC50": 9.11}
{"compound": "Cc1noc(C)c1-c1ccc(S(=O)(=O)[C@@H]2C[C@@H](C(=O)NC3(C#N)CC3)N(C(=O)C3(C(F)(F)F)CC3)C2)cc1 [Example 55]", "pIC50": 8.84}
